Catalogue of mass density readings, one per entry.
conditionDetails: 333.15 K; 60000 kPa; Liquid; Vibrating tube method
# number only, unit kg/m3 dropped from output

Below, each entry is followed by its recorded mass density result.
compound="CCCCCCCC(=O)OC [methyl octanoate]" endpointlabel="mass density" readoutunit=kg/m3 testvalue=884.95
compound="CCCCCCC(=O)OC [methyl heptanoate]" endpointlabel="mass density" readoutunit=kg/m3 testvalue=888.39

Given CCCC(=O)OC [methyl butanoate] , respond with its mass density.
906.96

Identify mass density associated with the compound CCCCC(=O)OC [methyl pentanoate]
898.8

Give the reported mass density for this compound. CCCCCC(=O)OC [methyl hexanoate]
892.97

Check the records and state mass density for CCCCCCCCC(=O)OC [methyl nonanoate]
881.95

Source listed as the NIST ThermoML archive (doi:10.1016/j.fluid.2018.04.024).
